# subject.of.test: T1, human PD-1 (human, UniProt Q15116 25-167)
# T1 construct: The immunogen was PD1/Fc (Leu25-Gln167 fused to human IgG1 Pro100-Lys330); also called huPD-1; hPD-1
# procedure.text: SPR, multiple-cycle, crude Fab from E. coli; antigen form not stated

- binder: "Fab 2 (Fab, V domains shown, Crude Fab from E. coli; also called PD1-BM VH-A49S) VH: EVQLVESGGGLVQPGGSLRLSCAASGFVFSRYDMAWVRQTPGKGLEWVSFISGGGSNTYYPDTVKGRFTISRDNSKNTLYLQMNSLRAEDTAVYYCISPYYYAMEYWGQGTTVTVSS VL: DIQMTQSPSSISTSVGDRVTITCKASQDVDTAVAWYQQKPGKSPKLLIHWASTRHTGVPSRFSGSGSGTDFTLTLSSVQPEDLADYFCQQYSTFPWTFGGGTKLEIK"
  measure.unit: "M⁻¹ s⁻¹"
  kon: 320000
- binder: "Fab 1 (Fab, V domains shown, Crude Fab from E. coli; also called PD1-BM VH-T40A) VH: EVQLVESGGGLVQPGGSLRLSCAASGFVFSRYDMAWVRQAPGKGLEWVAFISGGGSNTYYPDTVKGRFTISRDNSKNTLYLQMNSLRAEDTAVYYCISPYYYAMEYWGQGTTVTVSS VL: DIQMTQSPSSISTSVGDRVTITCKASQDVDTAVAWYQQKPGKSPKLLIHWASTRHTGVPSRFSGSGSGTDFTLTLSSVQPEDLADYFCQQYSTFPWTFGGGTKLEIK"
  measure.unit: "M⁻¹ s⁻¹"
  kon: 310000
- binder: "Fab 10 (Fab, V domains shown, Crude Fab from E. coli; also called PD1-BM VL-V78L) VH: EVQLVESGGGLVQPGGSLRLSCAASGFVFSRYDMAWVRQTPGKGLEWVAFISGGGSNTYYPDTVKGRFTISRDNSKNTLYLQMNSLRAEDTAVYYCISPYYYAMEYWGQGTTVTVSS VL: DIQMTQSPSSISTSVGDRVTITCKASQDVDTAVAWYQQKPGKSPKLLIHWASTRHTGVPSRFSGSGSGTDFTLTLSSLQPEDLADYFCQQYSTFPWTFGGGTKLEIK"
  measure.unit: "M⁻¹ s⁻¹"
  kon: 320000
- binder: "chimeric Fab (Fab, V domains shown, Crude murine-human chimeric Fab from E. coli TG1, made with the HCVR and LCVR of PD1#3; Only the variable domains are tied to it) VH: EVQLVESGGDLVKPGGSLKLSCAASGFVFSRYDMAWVRQTPEKRLEWVAFISGGGSNTYYPDTVKGRFTISRDNAKNTLYLQMTSLKSEDTAVYYCISPYYYAMEYWGQGTSVTVSS VL: DIVMTQSHKFISTSVGDRVSITCKASQDVDTAVAWYQQKPGQSPKLLIHWASTRHTGVPDRFTGGGSGTDFTLTLSNVQSEDLADYFCQQYSTFPWTFGGGTRLEIK"
  measure.unit: "M⁻¹ s⁻¹"
  kon: 300000
- binder: "Fab 9 (Fab, V domains shown, Crude Fab from E. coli; also called PD1-BM VL-L75I) VH: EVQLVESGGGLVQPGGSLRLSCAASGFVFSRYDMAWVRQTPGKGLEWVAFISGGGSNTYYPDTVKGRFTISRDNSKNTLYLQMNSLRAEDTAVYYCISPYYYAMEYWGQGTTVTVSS VL: DIQMTQSPSSISTSVGDRVTITCKASQDVDTAVAWYQQKPGKSPKLLIHWASTRHTGVPSRFSGSGSGTDFTLTISSVQPEDLADYFCQQYSTFPWTFGGGTKLEIK"
  measure.unit: "M⁻¹ s⁻¹"
  kon: 330000
